# testSystem: AGO2 A367P (Homo sapiens, UniProt Q9UKV8 1-859, A367P;S387D;S824A;S828D;S831D;S834A)
# Sequence (Q9UKV8 whole entry A367P/S387D/S824A/S828D/S831D/S834A): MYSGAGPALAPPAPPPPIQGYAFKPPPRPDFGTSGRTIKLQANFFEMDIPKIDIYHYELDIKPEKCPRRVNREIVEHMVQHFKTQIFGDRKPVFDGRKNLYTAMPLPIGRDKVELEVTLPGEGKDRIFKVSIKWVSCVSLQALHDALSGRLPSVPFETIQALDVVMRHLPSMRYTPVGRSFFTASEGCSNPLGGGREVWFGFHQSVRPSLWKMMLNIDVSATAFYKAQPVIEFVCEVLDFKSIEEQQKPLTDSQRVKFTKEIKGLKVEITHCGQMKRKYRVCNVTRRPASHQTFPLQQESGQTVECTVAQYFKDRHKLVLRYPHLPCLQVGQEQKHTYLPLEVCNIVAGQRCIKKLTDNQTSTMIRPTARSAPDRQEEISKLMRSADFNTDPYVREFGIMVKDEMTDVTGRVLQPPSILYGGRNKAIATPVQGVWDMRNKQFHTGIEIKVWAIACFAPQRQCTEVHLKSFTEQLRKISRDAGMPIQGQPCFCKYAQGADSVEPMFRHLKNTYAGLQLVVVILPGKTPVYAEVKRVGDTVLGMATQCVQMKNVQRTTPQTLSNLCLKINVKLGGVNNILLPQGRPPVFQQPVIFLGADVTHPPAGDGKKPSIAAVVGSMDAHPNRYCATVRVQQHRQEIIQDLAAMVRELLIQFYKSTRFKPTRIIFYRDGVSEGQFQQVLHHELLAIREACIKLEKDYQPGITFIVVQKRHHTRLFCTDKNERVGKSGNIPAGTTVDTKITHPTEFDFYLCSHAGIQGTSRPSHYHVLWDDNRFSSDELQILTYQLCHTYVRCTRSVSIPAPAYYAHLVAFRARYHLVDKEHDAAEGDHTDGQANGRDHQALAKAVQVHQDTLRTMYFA
# experiment: RNA Bind-n-Seq (nitrocellulose filter binding and sequencing); miR-122 guide loaded in AGO2; 60 min incubation; 30 mM Tris pH 8.0, 100 mM potassium acetate, 2 mM magnesium acetate, 0.5 mM TCEP, 0.005% NP-40, 0.01 mg/ml yeast tRNA; 3 nM AGO2-miR-122, 100 nM RNA library; 60; high values mean tight binding
# conditionParameters: protein: recombinant; tags: His6 (N-terminal, pFastBac HTA)
Each item that follows carries a reported binding signal.

binder: GCACTCTA (ssRNA, constant regions annealed to DNA blockers; guide miR-122 5' phosphate) RNA 1: GAGUUCUACAGUCCGACGAUCCCAACGCACUCUACACCUGGAAUUCUCGGGUGCCAA RNA 2: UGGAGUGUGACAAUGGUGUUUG DNA 1: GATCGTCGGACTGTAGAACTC DNA 2: TTGGCACCCGAGAATTCCA
binding signal: 0.306 fold enrichment over input
--
binder: ACACTTTG (ssRNA, constant regions annealed to DNA blockers; guide miR-122 5' phosphate) RNA 1: GAGUUCUACAGUCCGACGAUCCCAACACACUUUGCACCUGGAAUUCUCGGGUGCCAA RNA 2: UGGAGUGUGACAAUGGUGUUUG DNA 1: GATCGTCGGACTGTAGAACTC DNA 2: TTGGCACCCGAGAATTCCA
binding signal: 0.177 fold enrichment over input
